Reference source: patent US11098017B2

# subject_of_test: 11β-hydroxylase (Rattus norvegicus, UniProt P15393)
# Construct: tissue BioreclamationlVT; host or cells: membranes (homogenate pellet) from Sprague-Dawley rat adrenal glands
# Sequence (P15393 25-499): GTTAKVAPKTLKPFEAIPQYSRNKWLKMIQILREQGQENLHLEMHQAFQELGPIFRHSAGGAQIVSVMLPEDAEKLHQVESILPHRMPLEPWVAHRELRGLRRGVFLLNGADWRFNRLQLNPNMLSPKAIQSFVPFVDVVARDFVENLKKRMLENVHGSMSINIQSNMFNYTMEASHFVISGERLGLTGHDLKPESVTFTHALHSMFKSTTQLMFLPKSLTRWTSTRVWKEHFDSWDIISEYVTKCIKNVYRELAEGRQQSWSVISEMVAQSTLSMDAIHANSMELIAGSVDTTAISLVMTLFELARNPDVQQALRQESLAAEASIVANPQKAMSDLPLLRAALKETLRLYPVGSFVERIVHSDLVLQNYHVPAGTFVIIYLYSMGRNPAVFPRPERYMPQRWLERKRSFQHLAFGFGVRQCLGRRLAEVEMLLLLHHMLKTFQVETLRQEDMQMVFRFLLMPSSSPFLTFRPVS
# method_description: Displacement of [3H]-etomidate from adrenal membranes
# Format: binding
value_kind: pIC50
For clarity, pIC50 is expressed as the negative log10 of concentration in mol/L.

Which pIC50 is listed for CCOC(=O)c1cncn1[C@H](C)c1cc(OC)cc(OC)c1 [dimethoxy-etomidate] ?
8.10

Subsequent entry: CCOC(=O)c1cncn1[C@H](C)c1ccccc1 [etomidate, reference compound]
7.68
